- target-entity: GTPase HRas (Homo sapiens)
- protocol-text: Ras wt fluorescent GTP loading blockade – biochemical, wildtype, multiplex bead flow cytometry, dose response (AID 1335)
- condition-summary: bead-based flow cytometry, Bodipy-GTP binding to GST-Ras; at 100 µM (top of the series) unless noted
Ranges used to classify GTP binding, percent of control: low band: < 60%; middle band: ≥ 60% and < 90%; high band: ≥ 90%

1) C=CCn1c(SCC(=O)Nc2ccc3c(c2)OCO3)nnc1-c1cc(Br)ccc1O = middle band
2) CC(=O)Nc1ccc(N=Cc2c(O)c(C(=O)Nc3ccccc3)cc3ccccc23)cc1 = high band
3) O=c1c2ccccc2nc2c3ccccc3c(NCCN3CCOCC3)nn12 = low band
4) CCC1CCCCN1S(=O)(=O)c1ccc(NC(=O)CSc2ncccc2C(=O)O)cc1 (stereo unspecified) = low band
5) COc1cc(/C=N/Nc2ncnc3sc4c(c23)CCC4)ccc1O = low band
6) CCCNC(=O)Cn1c(=O)/c(=C\c2ccc(-c3ccc([N+](=O)[O-])cc3)o2)s/c1=C\C(=O)C(C)(C)C = high band
7) COc1ccc(NC(=O)CSc2ccc3nnc(-c4cccnc4)n3n2)c(OC)c1 = middle band
8) CC(C)CCNC(=O)CN(CCN1CCOCC1)C(=O)Cn1nnc(-c2ccc(F)cc2)n1 = high band
9) O=C(OC(C(=O)NCc1cccs1)c1ccccn1)c1cccs1 (stereo unspecified) = high band
10) Cc1cc(C)c(C(=O)Cn2cnc3cc([N+](=O)[O-])ccc3c2=O)cc1C = middle band
11) CCCCCN1CC(O)=C(c2ccccc2)C1=N = high band
12) CCOc1ccc2nc(SCc3ccc(CC(=O)O)cc3)c(C#N)cc2c1 = middle band
13) COc1ccc(C(=O)N[C@H](C(=O)OCc2cc(=O)oc3cc(C)ccc23)C(C)C)cc1 = middle band
14) N=C1/C(=C\c2ccc(SCc3ccco3)o2)C(=O)N=C2SC=NN12 = high band
15) O=C1CS/C(=N/N=C2C3CC4CC(C3)CC2C4)N1 = middle band
16) O=C(O)c1cc(-c2ccc(/C=C3\NC(=O)N(c4ccc(Cl)cc4)C3=O)o2)ccc1Cl = middle band

----------
- protocol-text: Nile Red efflux blockade in pump-expressing yeast – validation compound set, multiplex, phenotypic, pilot screen (AID 588506);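 also: Nile Red retained in cells so higher fluorescence means more efflux inhibition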
- condition-summary: S. cerevisiae pump-expressing triplex, Nile Red efflux flow cytometry; at 10 µM; stronger effect = higher value; the pumps come from Candida albicans
API: label(entry) gives YES if the entry's efflux inhibition (fraction of control) is strictly smaller than 0.1; on equality or larger values it gives NO.

1) Nc1nc(Cl)nc2c1ncn2[C@@H]1O[C@H](CO)[C@@H](O)[C@H]1O = NO
2) c1ccc(Nc2cccc3c(Nc4ccccc4)cccc23)cc1 = NO
3) COc1ccc(C(=O)CCN2CCc3cc(OC)c(OC)cc3C2)cc1 = NO
4) Cc1ccc(C2CC(=O)C(C=NCCN3CCN(C(=S)Nc4ccccc4)CC3)=C(O)C2)cc1 (stereo not given) = NO
5) COc1cccc2c(O)cc(=O)n(C)c12 = YES
6) COc1cc2c(cc1NCc1ccc3c(c1)OCO3)oc1ccccc12 = NO
7) C=CCC1(O)C(=O)N2C(=C1C(=O)N1CCOCC1)c1ccccc1CC2(C)C (stereo not given) = NO
8) CCSC(SCC)[C@H](O)[C@@H](O)[C@H](O)[C@H](O)CO = NO
9) O=C(O)/C=C/c1cnc[nH]1 = NO
10) C#C[C@]1(O)CC[C@H]2[C@@H]3CCc4cc(OC5CCCC5)ccc4[C@H]3CC[C@@]21C = NO
11) Nc1cnn(C2OC(CO)C(O)C2O)c(=O)n1 (stereo not given) = NO
12) O=C(O)C1Cc2ccccc2CN1S(=O)(=O)c1ccccc1 (stereo not given) = YES
13) NC(=O)c1cccnc1 = YES
14) COc1ccc(C(=O)Nc2cccnc2)cc1C(=O)Nc1cccnc1 = YES
15) COc1cc2[nH]c3c(=O)n(CCN4CCOCC4)cnc3c2cc1OC = YES
16) C[C@H]1O[C@@H](O[C@H]2[C@@H](O)C[C@H](O[C@H]3[C@@H](O)C[C@H](O[C@H]4CC[C@@]5(C)[C@H](CC[C@@H]6[C@@H]5C[C@@H](O)[C@]5(C)[C@@H](C7=CC(=O)OC7)CC[C@]65O)C4)O[C@@H]3C)O[C@@H]2C)C[C@H](O)[C@@H]1O = YES
17) Cc1ccc(CN2CCN(CCCc3ccccc3)CC2CCO)cc1 (stereo not given) = YES
18) O=C(NCCN1CCN(c2ccccc2)CC1)c1cccc(Br)c1 = YES
19) CCN(CC)CCCNC(=O)C1c2ccccc2Oc2ccccc21 = NO
20) CSc1ccc(CN2CCN(CCC(C)C)C(CCO)C2)cc1 (stereo not given) = YES
21) COC(=O)CN1C(=S)N(c2ccc(F)cc2)C(=O)C1CC(=O)Nc1ccccc1 (stereo not given) = YES
22) O=C(NCCc1ccccc1)C1CCN(C2CCN(Cc3ccco3)CC2)CC1 = YES
23) Cn1nnnc1SCC1=C(C(=O)O)N2C(=O)[C@@H](NC(=O)[C@H](O)c3ccccc3)[C@H]2SC1 = NO
24) O=C(O)c1ccccc1Nc1cccc(C(F)(F)F)c1 = YES
25) COC(=O)c1ccccc1NC(=O)NCc1ccccc1 = YES
26) NC(N)=NC(N)=Nc1ccc2ccccc2c1 = YES
27) O=C(COc1ccc2c(-c3ccccc3)cc(=O)oc2c1)NCc1cccs1 = NO
28) COc1ccc(C2C3=C(OC(C)=O)c4ccccc4C3=Nc3c2c(=O)n(C)c(=O)n3C)cc1 (stereo not given) = YES
29) c1ccc(CNc2ncnc3nc[nH]c23)cc1 = NO
30) C=C1C2(C(=O)Nc3ccc(SC(F)F)cc3)CCC(C2)C1(C)C (stereo not given) = YES
31) O=C(COc1cc(O)c2c(=O)c3ccccc3oc2c1)OCc1ccccc1 = YES
32) CCOc1ccc(CC2CCC(=O)NC2=O)cc1 (stereo not given) = YES
33) COc1ccc2[nH]c(=O)c3c(c2c1)OC(C)(C)C=C3 = YES
34) CC(C)c1ccc(OCc2ccc(C(=O)O)o2)cc1 = YES
35) O=c1[nH]cc(F)c(=O)[nH]1 = YES
36) CN(C)CCCN1c2ccccc2Sc2ccc(C(F)(F)F)cc21 = NO
37) COc1cc(CNCCc2c[nH]c3ccccc23)cc(Cl)c1OCC(N)=O = NO
38) O=C(CN1C(=O)C2CCc3[nH]c4ccccc4c3C2C1=O)N1CCCC1 (stereo not given) = YES
39) O=C(O)CCCCCN=C1CCc2ccccc2N1 = NO
40) CCOCCn1c(C(C)O)nc2ccccc21 (stereo not given) = YES
41) CCc1cc2c(C)cc(=O)oc2cc1OC(=O)C1CCCN1C(=O)OC(C)(C)C (stereo not given) = YES
42) COc1ccc(C(=O)NCC2OCCc3ccccc32)cc1 (stereo not given) = YES
43) C[C@]12CCC(=O)C=C1CC[C@@H]1[C@@H]2[C@@H](O)C[C@@]2(C)[C@H]1CC[C@]2(O)C(=O)COC(=O)CCC(=O)O = YES
44) CCCCCC#CCC#CCC#CCC#CCCCC(=O)O = YES
